MIC Enterococcus faecium (GC 2243) overview
System: Enterococcus sp.
ASSAY TEXT: In vitro antibacterial evaluation: minimum inhibitory concentration (MIC), broth dilution method
Type: cell-based
CONDITION DETAILS: broth dilution, inoculum 5×10^5 CFU/mL, 18 hours at 35° C.
Numeric only. Scale: µg/mL

// below: answered compounds
{"COMPOUND": "CC(c1ccccc1)C1NC(=O)CNC(=O)C(CO)NC(=O)C(C(O)C2CN(Cc3ccc(C(F)(F)F)cc3)C(=N)N2C2OC(CO)C(O)C(O)C2O)NC(=O)C(C(O)C2CNC(=N)N2)NC(=O)C(Cc2ccc(OC3OC(CO)C(OC4OC5COC6(OC5C(O)C4O)C4CC5CC(C4)CC6C5)C(O)C3O)cc2)NC1=O (stereo not shown)", "RESULT UNITS": "µg/mL", "OBSERVED": 16}
{"COMPOUND": "CC(c1ccccc1)C1NC(=O)CNC(=O)C(CO)NC(=O)C(C(O)C2CNC(=N)N2C2OC(CO)C(O)C(O)C2O)NC(=O)C(C(O)C2CNC(=N)N2)NC(=O)C(Cc2ccc(OC3OC(CO)C(OC4OC5COC(c6ccc(C(=O)c7ccc(I)cc7)cc6)OC5C(O)C4O)C(O)C3O)cc2)NC1=O (stereo not shown)", "RESULT UNITS": "µg/mL", "OBSERVED": 2}

Asked: What value of MIC Enterococcus faecium (GC 2243) has been reported for the following compound? CC(c1ccccc1)C1NC(=O)CNC(=O)C(CO)NC(=O)C(C(O)C2CNC(=N)N2C2OC(CO)C(O)C(O)C2O)NC(=O)C(C(O)C2CNC(=N)N2)NC(=O)C(Cc2ccc(OC3OC(CO)C(OC4OC5COC6(OC5C(O)C4O)C(C)CCCC6C)C(O)C3O)cc2)NC1=O (stereo not shown)
Given back: 2

Asked: What value of MIC Enterococcus faecium (GC 2243) has been reported for the following compound? CC(C)CC(=O)OC1C(O)C(OC2C(CO)OC(Oc3ccc(CC4NC(=O)C(C(C)c5ccccc5)NC(=O)CNC(=O)C(CO)NC(=O)C(C(O)C5CNC(=N)N5C5OC(CO)C(O)C(O)C5O)NC(=O)C(C(O)C5CNC(=N)N5)NC4=O)cc3)C(O)C2O)OC2COC3(OC21)C1CC2CC(C1)CC3C2 (stereo not shown)
Given back: 4

Source of measurements: patent US8247211B2
